The measurements presented in this section are drawn from ChEMBL document CHEMBL4422657.

System: Mycobacterium tuberculosis
Method: Antitubercular activity against Mycobacterium tuberculosis H37Rv after 7 days by Resazurin microtitre assay
Type: functional
Test parameters: 168 h
Quick reference: MIC of the listed items.

Check out these entries, answers already filled in.
1) CCOC(=O)[C@H](Cc1ccc(OP(=O)(CCCC(=O)N(C)O)Oc2ccc(C[C@H](NC(C)=O)C(=O)OCC)cc2)cc1)NC(C)=O : > 50 µM
2) CCOC(=O)[C@H](C)NP(=O)(CCCC(=O)N(C)O)N[C@@H](C)C(=O)OCC : 20 µM
3) CCOC(=O)[C@@H]1CCCN1P(=O)(CCCC(=O)N(C)O)N1CCC[C@H]1C(=O)OCC : > 50 µM

Now for the molecule whose MIC we want.
Given CCOC(=O)[C@H](C)NP(=O)(N[C@@H](C)C(=O)OCC)C(CCC(=O)N(C)O)c1ccc(Cl)c(Cl)c1 (some centres undefined) , state its recorded MIC.
> 50 µM
